Tested on: NCIH727
Experiment: CellTiter-Glo Reagent cancer cell line proliferation assay, NCIH727
Assay type: cell-based, human
Details: Homo sapiens, NCI-H727, 24 h, NCIH727, KRAS(G12V) heterozygous
test.readout: IC50

Below, each entry is followed by its recorded IC50 result.
C#Cc1c(F)ccc2cc(O)cc(-c3ncc4c(N5CC6CCC(C5)N6C(=O)CC#N)nc(OCC5(CN6CCN(CC7CCN(c8ccc9c(c8)CN(C8CCC(=O)NC8=O)C9=O)CC7)CC6)CC5)nc4c3F)c12 (stereo not drawn) ... < 100 nM
C#Cc1c(F)ccc2cc(O)cc(-c3nc(OC)c4c(N5CC6CCC(C5)N6C(=O)CC(C)C#N)nc(OCC5(CNC6CCC(=O)NC6=O)CC5)nc4c3F)c12 (stereo not drawn) ... < 100 nM

Shift focus to the following entry.
Form field: reported IC50 of C#Cc1c(F)ccc2cc(O)cc(-c3ncc4c(N5CC6CCC(C5)N6C(=O)CC(C)C#N)nc(OCC5(CN6CCN(CC7CCN(c8ccc9c(c8)CN(C8CCC(=O)N(C)C8=O)C9=O)CC7)CC6)CC5)nc4c3F)c12 (stereo not drawn) 100 to 1000 nM

* * *

Target: KRAS(G12D) (Homo sapiens, UniProt P01116, G12D)
Sequence (P01116 1-188 isoform P01116-2 G12D): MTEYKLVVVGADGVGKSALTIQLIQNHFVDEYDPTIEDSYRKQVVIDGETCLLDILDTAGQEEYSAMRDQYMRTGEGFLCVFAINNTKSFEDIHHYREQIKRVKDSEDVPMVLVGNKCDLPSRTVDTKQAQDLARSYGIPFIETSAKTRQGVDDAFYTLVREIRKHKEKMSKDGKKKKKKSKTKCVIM
Test: cell-based
Type: cell-based
Design: Cell lines SW1990 and GP2D that express KRAS(G12D); host or cells: SW1990
Conditions: SW1990, read-out: WB data SW1990 DMax
test.readout: Dmax

Look over these answered cases.
C#Cc1c(F)ccc2cc(O)cc(-c3ncc4c(N5CC6CCC(C5)N6)nc(OCC5(CN6CCN(CC#Cc7ccc8c(c7)CN(C7CCC(=O)NC7=O)C8=O)CC6)CC5)nc4c3F)c12 (centres unmarked) ... 10 to 50%
C#Cc1c(F)ccc2cc(O)cc(-c3nc(OC)c4c(N5CC6CCC(C5)N6C(=O)C(F)(F)F)nc(OCC5(CN6CCC(CN7CCN(c8ccc9c(c8)CN(C8CCC(=O)NC8=O)C9=O)CC7)CC6)CC5)nc4c3F)c12 (centres unmarked) ... 10 to 50%
C#Cc1c(F)ccc2cc(O)cc(-c3ncc4c(N5CC6CCC(C5)N6)nc(OCC5(CN6CCC(N7CCC(c8ccc9c(c8)CN(C8CCC(=O)NC8=O)C9=O)CC7)CC6)CC5)nc4c3F)c12 (centres unmarked) ... > 50%

Would you kindly share the measured Dmax for C#Cc1c(F)ccc2cc(O)cc(-c3ncc4c(N5CC6CCC(C5)N6C(=O)C(F)(F)F)nc(OCC5(CN6CCN(CC7CCN(c8ccc9c(c8)CN(C8CCC(=O)NC8=O)C9=O)CC7)CC6)CC5)nc4c3F)c12 (centres unmarked) ? 10 to 50%

# input compound: C#Cc1c(F)ccc2cc(O)cc(-c3ncc4c(N5CC6CCC(C5)N6)nc(OCC5(CN6CCN(CC7CCN(c8ccc9c(c8)CN(C8CCC(=O)NC8=O)C9=O)CC7)CC6)CC5)nc4c3F)c12 (centres unmarked) ; wanted: its Dmax > 50%

* * *

Target: KRAS(G12V) (Homo sapiens, UniProt P01116, G12V)
Construct: anti-KRAS Western blot degradation by PROTACs recruiting CRBN or VHL
Sequence (P01116 1-188 isoform P01116-2 G12V): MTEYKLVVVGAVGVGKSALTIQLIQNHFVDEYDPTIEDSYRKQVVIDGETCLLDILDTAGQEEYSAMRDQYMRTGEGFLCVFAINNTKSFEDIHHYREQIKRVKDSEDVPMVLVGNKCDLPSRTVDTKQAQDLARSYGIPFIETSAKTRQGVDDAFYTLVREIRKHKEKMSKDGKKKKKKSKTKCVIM
Assay: KRAS Western Blot Protein Degradation Assay, NCIH727
Assay type: cell-based
Conditions: NCI-H727, 24 hr, read-out: WB data NCIH727 DMax
Each entry below lists one item and its recorded Dmax value.

O=CO.[2H]C([2H])([2H])Oc1nc(-c2cc(O)cc3ccc(F)c(C#C)c23)c(F)c2nc(OCC3(CN4CCN(CC5CCN(c6ccc7c(c6)CN(C6CCC(=O)NC6=O)C7=O)CC5)CC4)CC3)nc(N3CC4CCC(C3)N4C(=O)CC(C)C#N)c12 (centres unmarked) ... > 50%

Write down the reported Dmax of C#Cc1c(F)ccc2cc(O)cc(-c3ncc4c(N5CC6CCC(C5)N6C(=O)CC#N)nc(OCC5(CN6CCN(CC7CCN(c8ccc9c(c8)CN(C8CCC(=O)NC8=O)C9=O)CC7)CC6)CC5)nc4c3F)c12 (centres unmarked) , test system: KRAS(G12V) (Homo sapiens, UniProt P01116, G12V). > 50%

* * *

Target: KRAS(G12C) (Homo sapiens, UniProt P01116, G12C)
Construct: LU65A that expresses KRAS(G12C); host or cells: LU65A
Sequence (P01116 1-185 isoform P01116-2 G12C limits assumed): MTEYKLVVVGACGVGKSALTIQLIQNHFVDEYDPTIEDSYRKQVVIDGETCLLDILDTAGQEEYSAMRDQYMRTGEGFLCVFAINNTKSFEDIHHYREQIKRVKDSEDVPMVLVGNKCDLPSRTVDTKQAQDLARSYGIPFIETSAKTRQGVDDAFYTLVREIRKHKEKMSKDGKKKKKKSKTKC
Assay: KRAS Western Blot Protein Degradation Assay, LU65A
Assay type: cell-based
Conditions: 24 hr, read-out: WB data LU65A DC50
Recorded DC50 for the following compounds

C#Cc1c(F)ccc2cc(O)cc(-c3ncc4c(N5CC6CCC(C5)N6C(=O)C(C)(C)C#N)nc(OCC5(CN6CCN(CC7CCN(c8ccc9c(c8)CN(C8CCC(=O)NC8=O)C9=O)CC7)CC6)CC5)nc4c3F)c12 (stereo not shown) [Compound 106] ... > 1 µM
C#Cc1c(F)ccc2cc(O)cc(-c3ncc4c(N5CCN(C(=O)CC#N)[C@@H](CC#N)C5)nc(OCC5(CN6CCN(CC7CCN(c8ccc9c(c8)CN(C8CCC(=O)NC8=O)C9=O)CC7)CC6)CC5)nc4c3F)c12 (stereo partly shown) [Compound 103] ... > 1 µM
O=CO.[2H]C([2H])([2H])Oc1nc(-c2cc(O)cc3ccc(F)c(C#C)c23)c(F)c2nc(OCC3(CN4CCN(CC5CCN(c6ccc7c(c6)CN(C6CCC(=O)NC6=O)C7=O)CC5)CC4)CC3)nc(N3CC4CCC(C3)N4C(=O)CC(C)C#N)c12 (stereo not shown) [Compound 115] ... < 0.1 µM

GET /values?readout=DC50&item= C#Cc1c(F)ccc2cc(O)cc(-c3nc(OC)c4c(N5CC6CCC(C5)N6C(=O)CC#N)nc(OCC5(CN6CCN(CC7CCN(c8ccc9c(c8)CN(C8CCC(=O)NC8=O)C9=O)CC7)CC6)CC5)nc4c3F)c12 (stereo not shown) [Compound 102] > 1 µM

* * *

Test system: NCIH727
Experiment: CellTiter-Glo Reagent cancer cell line proliferation assay, NCIH727
Format: cell-based, human
Conditions: Homo sapiens, NCI-H727, 24 h, NCIH727, KRAS(G12V) heterozygous
pIC50: −log10 of the molar value.
test.readout: pIC50

Query: pIC50; subject: C#Cc1c(F)ccc2cc(O)cc(-c3nc(OC(F)(F)F)c4c(N5CC6CCC(C5)N6C(=O)CCC#N)nc(OCC5(CN6CCN(CC7CCN(c8ccc9c(c8)CN(C8CCC(=O)NC8=O)C9=O)CC7)CC6)CC5)nc4c3F)c12 (stereo not drawn) [Compound 151] > 7.00

Requested field: pIC50. Item: C#Cc1c(F)ccc2cc(O)cc(-c3ncc4c(N5CCN(C(=O)C=C)[C@@H](CC#N)C5)nc(OCC5(CN6CCN(CC7CCN(c8ccc9c(c8)CN(C8CCC(=O)NC8=O)C9=O)CC7)CC6)CC5)nc4c3F)c12 (stereo partly drawn) [Compound 79] < 6.00

Dear colleague, I am looking for the recorded pIC50 of the following compound: C#Cc1c(F)ccc2cc(O)cc(-c3ncc4c(N5CC6CCC(C5)N6C(=O)CC(C)C#N)nc(OCC5(CN6CCN(CC7CCN(c8ccc9c(c8)CN(C8CCC(=O)NC8=O)C9=O)CC7)CC6)CC5)nc4c3F)c12 (stereo not drawn) [Compound 129] > 7.00

Requested field: pIC50. Item: C#Cc1c(F)ccc2cc(O)cc(-c3ncc4c(N5CCCOC6CC65)nc(OCC5(CN6CCN(CC7CCN(c8ccc9c(c8)CN(C8CCC(=O)NC8=O)C9=O)CC7)CC6)CC5)nc4c3F)c12 (stereo not drawn) [Compound 139] < 6.00

Give the measured pIC50 of C#Cc1c(F)ccc2cc(O)cc(-c3ncc4c(N5CCN(C(=O)CC#N)[C@@H](CC#N)C5)nc(OCC5(CN6CCN(CC7CCN(c8ccc9c(c8)CN(C8CCC(=O)NC8=O)C9=O)CC7)CC6)CC5)nc4c3F)c12 (stereo partly drawn) [Compound 103] . < 6.00

Fill in the blank: the reported pIC50 of C#Cc1c(F)ccc2cc(O)cc(-c3ncc4c(N5CC6CCC(C5)N6C(=O)C(C)(C)C#N)nc(OCC5(CN6CCN(CC7CCN(c8ccc9c(c8)CN(C8CCC(=O)NC8=O)C9=O)CC7)CC6)CC5)nc4c3F)c12 (stereo not drawn) [Compound 106] is ____. < 6.00

Recorded pIC50 of C#Cc1c(F)ccc2cc(O)cc(-c3nc(OC)c4c(N5CCCO[C@H]6C[C@H]65)nc(OCC5(CN6CCN(CC7CCN(c8ccc9c(c8)CN(C8CCC(=O)NC8=O)C9=O)CC7)CC6)CC5)nc4c3F)c12 (stereo partly drawn) [Compound 164] , please. > 7.00

Report pIC50 for O=CO.[2H]C([2H])([2H])Oc1nc(-c2cc(O)cc3ccc(F)c(C#C)c23)c(F)c2nc(OCC3(CN4CCN(CC5CCN(c6ccc7c(c6)CN(C6CCC(=O)NC6=O)C7=O)CC5)CC4)CC3)nc(N3CC4CCC(C3)N4C(=O)CCC#N)c12 (stereo not drawn) [Compound 114] please. > 7.00

Consider the compound C#Cc1c(F)ccc2cc(O)cc(-c3ncc4c(N5CC6CCC(C5)N6C(=O)CC(C)C#N)nc(OCC5(CN(C)Cc6ccc(C7CN(c8ccc9c(c8)CN(C8CCC(=O)NC8=O)C9=O)C7)cc6)CC5)nc4c3F)c12 (stereo not drawn) [Compound 132] and give its measured pIC50. > 7.00
